In this section, each of the compounds is paired with its reported RAM network inhibition.
Experiment: RAM signaling pathway blockade in yeast – S. cerevisiae, Pdr1DBD-CYC8 efflux-inhibited sensitized strain, primary screen (AID 1298);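 note: 0% = DMSO untreated cells without growth and 100% = 10 µM 1-NA-PP1 full growth; higher means more yeast growth rescued from 5-FOA killing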
Conditions: S. cerevisiae cbk1-as DSE1-URA3 strain, 5-FOA growth OD615, 2 d; at 50 µM; stronger effect = higher value
Report the figure in % without appending any unit label.

1. O=C(NCc1cccs1)c1ccccc1F ... 1.34

Exercise: For `CN(C)C(=O)N1CCN(C(=O)c2ccco2)CC1` , what is its reported RAM network inhibition?
Solution: 0.72

* * *

In this section, each of the compounds is paired with its reported Her2 level.
Target: Receptor tyrosine-protein kinase erbB-2 (Homo sapiens) (UniProt P04626)
Sequence (P04626 whole entry, looked up): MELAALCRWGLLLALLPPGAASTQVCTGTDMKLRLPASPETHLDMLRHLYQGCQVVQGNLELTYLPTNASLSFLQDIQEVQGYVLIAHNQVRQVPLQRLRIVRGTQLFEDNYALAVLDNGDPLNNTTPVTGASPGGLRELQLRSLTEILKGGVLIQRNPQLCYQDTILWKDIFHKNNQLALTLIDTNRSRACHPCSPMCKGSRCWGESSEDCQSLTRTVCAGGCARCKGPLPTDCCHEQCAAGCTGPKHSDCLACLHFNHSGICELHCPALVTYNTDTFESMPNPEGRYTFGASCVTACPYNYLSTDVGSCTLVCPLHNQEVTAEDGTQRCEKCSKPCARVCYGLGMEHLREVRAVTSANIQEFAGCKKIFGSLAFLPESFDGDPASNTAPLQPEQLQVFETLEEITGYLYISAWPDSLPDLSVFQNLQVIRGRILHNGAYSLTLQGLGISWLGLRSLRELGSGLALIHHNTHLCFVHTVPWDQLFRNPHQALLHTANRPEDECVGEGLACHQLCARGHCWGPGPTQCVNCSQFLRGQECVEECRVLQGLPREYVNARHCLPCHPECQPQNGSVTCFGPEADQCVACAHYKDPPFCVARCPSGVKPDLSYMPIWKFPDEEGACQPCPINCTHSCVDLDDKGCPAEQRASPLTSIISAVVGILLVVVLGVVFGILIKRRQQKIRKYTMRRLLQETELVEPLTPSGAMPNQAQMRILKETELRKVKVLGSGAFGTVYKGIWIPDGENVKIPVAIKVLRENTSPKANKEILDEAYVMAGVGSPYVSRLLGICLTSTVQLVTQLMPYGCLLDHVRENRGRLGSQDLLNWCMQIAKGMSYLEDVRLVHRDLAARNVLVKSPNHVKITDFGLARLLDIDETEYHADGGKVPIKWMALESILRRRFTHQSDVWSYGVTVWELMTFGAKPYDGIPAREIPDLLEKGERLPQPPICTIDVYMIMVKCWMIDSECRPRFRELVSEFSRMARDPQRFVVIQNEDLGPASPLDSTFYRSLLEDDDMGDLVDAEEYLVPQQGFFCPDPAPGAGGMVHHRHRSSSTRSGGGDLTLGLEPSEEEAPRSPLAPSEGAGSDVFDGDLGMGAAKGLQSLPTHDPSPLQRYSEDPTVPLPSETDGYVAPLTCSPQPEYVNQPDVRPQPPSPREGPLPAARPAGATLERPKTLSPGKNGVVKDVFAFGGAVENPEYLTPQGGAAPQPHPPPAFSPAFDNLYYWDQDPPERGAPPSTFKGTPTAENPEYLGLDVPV
Experiment: Her2 expression decrease, cell viability multiplex – SKBR3 breast tumor cells, AlphaScreen, ATP viability, primary screen (AID 461);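 note: lower value means less Her2 protein in the cells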
Details: 18-24 h, at 10 µM, stronger effect = lower value
Report the figure in % without appending any unit label.

1) CCOC(=O)Cc1ccc(NS(=O)(=O)c2ccc(SC)cc2)cc1 ... 88
2) Cc1cc(C)c2c(=O)n(CC(=O)NCCCN3CCOCC3)sc2n1 ... 89.5
3) N#C/C(C(=O)N1CCOCC1)=C1/SC=C(c2ccccc2)N1c1ccccc1 ... 92
4) COc1ccc(NC(=O)CSc2nnc(Cc3cccn3C)n2-c2ccc(F)cc2)cc1OC ... 92.5
5) COc1ccccc1-n1c(=O)[nH]c2c(C(N)=O)nc(-c3cccnc3)nc21 ... 88.5

Turning to the following compound.
Exercise: Lab note: need Her2 level with Receptor tyrosine-protein kinase erbB-2 (Homo sapiens) (UniProt P04626) for entry Cc1ccc(C(=O)CC2(O)C(=O)N(C)c3ccc(Br)cc32)c(C)c1 (stereo unspecified) , please look it up.
Solution: 88.5

* * *

Assay: HUVEC growth inhibition – cell-based, human, primary screen (AID 575);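 note: 100% = median of untreated cell wells with 0.1% DMSO on each plate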
Conditions: HUVEC proliferation, CellTiter-Glo luminescence, 72 h; at 10 µM; stronger effect = lower value
In this section, each of the compounds is paired with its reported viability.
Report the figure in % without appending any unit label.

1) Nc1nc(N2CCCCC2)nc(N(c2ccccc2)c2ccccc2)n1 ... 69.3
2) CN(CC(=O)N1CCCCC1)S(=O)(=O)c1cccc2cccnc12 ... 91.5

Exercise: For COc1ccc(NC(=O)C2Cc3ccccc3C(=O)O2)cc1 (stereo not drawn) , what is its reported viability?
Solution: 104

* * *

Test: growth suppression of yeast trafficking mutant, preliminary HTS, modulators of trafficking downstream of Golgi apparatus project, 1536-format plate, OD 615 nm (AID 637)
Details: yeast transport mutant growth, absorbance 615 nm, 18 h; stronger effect = higher value
Activity calls are given as the source filed them. Rule as the data show it: active = inhibition above about 30%; inactive = the rest.
endpoint_name: inhibition

Exercise: For `CCOc1cccc(OCCCCn2ccnc2)c1` , what is its reported inhibition?
Solution: -2.46% (inactive)

Exercise: Could you do the same for `O=C(OCCN(CCOC(=O)c1ccncc1)S(=O)(=O)c1cccs1)c1ccncc1` , please?
Solution: 1.75% (inactive)

Exercise: Could you do the same for O=C(NCC1CCCO1)C1CCN(S(=O)(=O)c2cccc3cccnc23)CC1 (configuration not stated) , please?
Solution: -2.13% (inactive)

Exercise: Could you do the same for COc1ccc(C(NC(=O)c2ccco2)c2ccc(OC)c(OC)c2)cc1 (configuration not stated) , please?
Solution: -3.17% (inactive)

Exercise: Could you do the same for CCN1CCN(C(CNC(=O)c2ccc3c(c2)OCO3)c2cccnc2)CC1 (configuration not stated) , please?
Solution: -6.23% (inactive)

* * *

Test: reduced viability of SK-BR-3 breast cancer cells – cell-based, 24 h, human, pilot screen (AID 572);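 note: compound exposure lasted between 18 and 24 h rather than exactly 24 h; 100% = carrier-treated control wells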
Conditions: SK-BR-3 viability, CellTiter-Glo luminescence, at 10 µM, stronger effect = lower value
In this section, each of the compounds is paired with its reported viability.
Report the figure in % without appending any unit label.

# example entries with known answers
1. Oc1ccc(-c2n[nH]c(=S)n2Cc2ccccc2)cc1 ... 90.5
2. COc1cccc(-c2nc(CS(=O)(=O)CC(=O)Nc3cc(C)ccc3C)c(C)o2)c1 ... 76
3. Cc1ccc(S(=O)(=O)N2CCOCC2)cc1C(=O)Nc1nc(-c2cccnc2)cs1 ... 106
4. COc1ccc(NS(=O)(=O)c2coc(C(N)=O)c2)cc1Cl ... 101
5. O=C(NCCSc1c[nH]c2ccccc12)c1ccco1 ... 112
6. CN1CCN(c2nc3c(c(=O)[nH]c(=O)n3C)n2CCSc2nc3ccccc3s2)CC1 ... 87
7. CCN1C(=O)c2ccccc2S(=O)c2ccc(C(=O)NC3CC3)cc21 (stereo not drawn) ... 100
8. O=C(c1ccco1)N1CCN(C(=O)c2sccc2-c2ccccc2)CC1 ... 93
9. O=C1c2ccccc2C(Nc2ccc3c(c2)OCCO3)N1Cc1ccc2c(c1)OCO2 (stereo not drawn) ... 91
10. CCOC(=O)c1ccc(NS(=O)(=O)c2ccc3c(c2)oc(=O)n3C)cc1 ... 132

Exercise: For COc1ccc(OC)c(C(C)NC=O)c1 (stereo not drawn) , what is its reported viability?
Solution: 89

Exercise: Could you do the same for `CCOc1ccccc1N(CC(=O)N1CCCCCC1)S(C)(=O)=O` , please?
Solution: 99

Exercise: Could you do the same for CC1=C(C(N)=O)C(c2ccccn2)n2nc(SCc3ccccc3)nc2N1 (stereo not drawn) , please?
Solution: 88

* * *

Experiment: growth suppression of yeast trafficking mutant, preliminary HTS, modulators of trafficking downstream of Golgi apparatus project, 1536-format plate, OD 615 nm (AID 637)
Conditions: yeast transport mutant growth, absorbance 615 nm, 18 h; stronger effect = higher value
In this section, each of the compounds is paired with its reported inhibition.
Report the figure in % without appending any unit label.

Exercise: For `Cc1ccc(-n2c3c(cc(C(=O)O)c2=O)C(=O)CC(C)(C)C3)cc1` , what is its reported inhibition?
Solution: 0

Exercise: Could you do the same for CC1CC(NC(=O)c2cnc3n(c2=O)CCS3)CC(C)(C)C1 (centres undefined) , please?
Solution: -3

Exercise: Could you do the same for `O=C(CCNS(=O)(=O)c1cccc2nsnc12)NCc1cccs1` , please?
Solution: 4.13

Exercise: Could you do the same for `CCOC(=O)c1ccc2ncc(C(=O)OCC)c(NCCN(C)C)c2c1` , please?
Solution: 1.83

Exercise: Could you do the same for `CCOc1ccccc1C(=O)Nc1nnc(CC)s1` , please?
Solution: 3

* * *

In this section, each of the molecules is paired with its reported viability increase.
Assay: doxorubicin toxicity protection in MRP-1 cells – H69AR cells, CellTiter-Glo, duplicate, MRP-1 activator project, pilot screen (AID 807);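 note: compound pretreatment 18-22 h then 72 h combined with doxorubicin; 0% = doxorubicin alone and 100% = vehicle without doxorubicin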
Settings: H69AR viability with doxorubicin, CellTiter-Glo luminescence; at 10 µM; stronger effect = higher value
The source made the active and inactive calls.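 How the source made its calls: active means viability increase at or above a cutoff of the median across tested compounds plus 3 SD (cut at about 8.5% in these data, passing the limit was not always enough); inconclusive means some gains above the cutoff, reason not given; inactive means the rest.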

# example entries with known answers
1. CCSc1nnc(NC(=O)c2cc3c(s2)CCCC3)s1 ... -1.67% (inactive)
2. O=C(Cc1cc(=O)[nH]c(=O)[nH]1)NCC1CCCO1 (stereo not drawn) ... 0.94% (inactive)

Exercise: For `CCN(CC)c1ccc2cc(-c3nc4ccccc4[nH]3)c(=O)oc2c1` , what is its reported viability increase?
Solution: -7.61% (inactive)

* * *

Test: MRP1 drug-resistance reversers in H69AR cells – cell-based, doxorubicin co-treatment, pilot screen (AID 601)
Conditions: H69AR cells + 2 uM doxorubicin, CellTiter-Glo, 72 h; measured here: viability with 2 uM doxorubicin; at 10 µM; stronger effect = lower value
In this section, each of the molecules is paired with its reported viability.
Report the figure in % without appending any unit label.

1. O=C(Nc1nc(-c2ccncc2)cs1)C1COc2ccccc2O1 (configuration not stated) ... 60.6
2. Cc1nc2ccc(Br)cn2c1NC(C)(C)C ... 86.3

Exercise: For CN(C)CCCN1C(=O)c2oc3ccc(Cl)cc3c(=O)c2C1c1cccnc1 (configuration not stated) , what is its reported viability?
Solution: 79.9

Exercise: Could you do the same for COc1ccc(NC(=O)CC2Sc3ncnn3C2=O)cc1 (configuration not stated) , please?
Solution: 83.5

Exercise: Could you do the same for `CCCc1nnc2n1N=C(c1ccc(-c3cc(Cl)ccc3Cl)o1)CS2` , please?
Solution: 87.8

Exercise: Could you do the same for Nc1nc2n(n1)C(c1cccc(Br)c1)CC(c1ccccc1)N2 (configuration not stated) , please?
Solution: 98.7

Exercise: Could you do the same for CCC(C)(NC(=O)c1ccc(=O)[nH]c1)C(=O)NC1CCCC1 (configuration not stated) , please?
Solution: 81.8

* * *

In this section, each of the compounds is paired with its reported viability.
Assay: reduced viability of SK-BR-3 breast cancer cells – cell-based, 24 h, human, pilot screen (AID 572);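 note: compound exposure lasted between 18 and 24 h rather than exactly 24 h; 100% = carrier-treated control wells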
Conditions: SK-BR-3 viability, CellTiter-Glo luminescence, at 10 µM, stronger effect = lower value
Report the figure in % without appending any unit label.

# example entries with known answers
1. O=C(CSc1ncnc2nc[nH]c12)c1ccc(Cl)cc1 ... 76
2. OC1(c2cccc(C(F)(F)F)c2)CCN(c2ccc(-c3ccccc3)nn2)CC1 ... 71.5
3. CCn1c(SCC(=O)Nc2cc(C)ccc2C)nc2c(c1=O)SC(C)C2 (stereo unspecified) ... 90.5
4. O=C(O)C1CC=CCC1C(=O)Nc1cccc(F)c1 (stereo unspecified) ... 94
5. Cn1c(=O)c2c(nc3sccn32)n(C)c1=O ... 106
6. O=C(O)c1ccc2c(c1)C(=O)N(c1ccc(Cl)cn1)C2=O ... 98

Exercise: For `O=C(c1ccc(Br)cc1)N1CCN(S(=O)(=O)c2ccccc2)CC1` , what is its reported viability?
Solution: 113

Exercise: Could you do the same for Cc1ccc(N(C(=O)C2CCC(=O)N2)C2(C(=O)NC3CCCCC3)CCCCC2)cc1 (stereo unspecified) , please?
Solution: 110

Exercise: Could you do the same for `CCc1nc2sc(C)c(C)c2c(=O)n1CCO` , please?
Solution: 106

Exercise: Could you do the same for Nc1nc2n(n1)C(c1c(F)cccc1Cl)CC(c1ccc(F)cc1)N2 (stereo unspecified) , please?
Solution: 102

Exercise: Could you do the same for COCCNC(=O)C(C)N(c1ccc(Oc2ccccc2)cc1)S(C)(=O)=O (stereo unspecified) , please?
Solution: 112

Exercise: Could you do the same for CCOC(=O)C(CC)n1nc(C)n2c(cc3sccc32)c1=O (stereo unspecified) , please?
Solution: 114

Exercise: Could you do the same for CCOCCCNC(=O)c1ccc2c(c1)N(Cc1ccccc1)C(=O)CS2=O (stereo unspecified) , please?
Solution: 104

Exercise: Could you do the same for `CC1CCN(C(=O)CSCC(=O)Nc2nc(-c3cccs3)cs2)CC1` , please?
Solution: 86

Exercise: Could you do the same for CC1CCCCC1NC(=O)Cn1ncc2ccccc21 (stereo unspecified) , please?
Solution: 104

Exercise: Could you do the same for `O=C(Nc1ccc(Cl)cn1)c1cccnc1` , please?
Solution: 104
